System: 242566-281-R-J2-PDC complex spheroid viability;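 note: spheroids exposed to compound for 7 days before readout; 100% = DMSO vehicle control wells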
Test: Anticancer human tumor 242566-281-R-J2-PDC patient-derived pancreatic carcinoma cell line growth inhibition [RAS]
Conditions: second compound 1 µM; first compound 0.000949 µM; hits give low values
Listed next: entries and their corresponding viability, T/C.
Just the number please, in %, no unit attached.

Here's what some known entries look like.
compound	measurement.target	viability, T/C (%)
CCc1c2c(nc3ccc(O)cc13)-c1cc3c(c(=O)n1C2)COC(=O)[C@]3(O)CC + C#Cc1c(F)ccc2cc(O)cc(-c3ncc4c(N5CC6CCC(C5)N6)nc(OCC56CCCN5CC(F)C6)nc4c3F)c12	242566-281-R-J2-PDC complex spheroid viability	59.3
CC1(C)CCC(Nc2ncc(C(F)(F)F)c(-c3c[nH]c4c(P(C)(C)=O)c(C#N)ccc34)n2)CN1 (centres undefined) + C=CC(=O)N1CCN(c2nc(OCC3CCCN3C)nc3c(F)c(-c4nc(N)cc(C)c4C(F)(F)F)c(Cl)cc23)C(C)C1	242566-281-R-J2-PDC complex spheroid viability	130
CC1(C)CCC(Nc2ncc(C(F)(F)F)c(-c3c[nH]c4c(P(C)(C)=O)c(C#N)ccc34)n2)CN1 (centres undefined) + C#Cc1c(F)ccc2cc(O)cc(-c3ncc4c(N5CC6CCC(C5)N6)nc(OCC56CCCN5CC(F)C6)nc4c3F)c12	242566-281-R-J2-PDC complex spheroid viability	59.4

# evaluate next
(Q) What value of measured viability, T/C is listed for CCc1c2c(nc3ccc(O)cc13)-c1cc3c(c(=O)n1C2)COC(=O)[C@]3(O)CC + C=CC(=O)N1CCN(c2nc(OCC3CCCN3C)nc3c(F)c(-c4nc(N)cc(C)c4C(F)(F)F)c(Cl)cc23)C(C)C1 ?
(A) 104
